Target Or System: myeloperoxidase (Homo sapiens)
Construct: Homogenates were centrifuged at 1,300×g for ten (10) minutes and the supernatant extracts were kept during the course of analysis; from tissue; host or cells: human sputum / oral fluid-cell harvest (neutrophil-rich) homogenate supernatants
Sequence (P05164 49-745): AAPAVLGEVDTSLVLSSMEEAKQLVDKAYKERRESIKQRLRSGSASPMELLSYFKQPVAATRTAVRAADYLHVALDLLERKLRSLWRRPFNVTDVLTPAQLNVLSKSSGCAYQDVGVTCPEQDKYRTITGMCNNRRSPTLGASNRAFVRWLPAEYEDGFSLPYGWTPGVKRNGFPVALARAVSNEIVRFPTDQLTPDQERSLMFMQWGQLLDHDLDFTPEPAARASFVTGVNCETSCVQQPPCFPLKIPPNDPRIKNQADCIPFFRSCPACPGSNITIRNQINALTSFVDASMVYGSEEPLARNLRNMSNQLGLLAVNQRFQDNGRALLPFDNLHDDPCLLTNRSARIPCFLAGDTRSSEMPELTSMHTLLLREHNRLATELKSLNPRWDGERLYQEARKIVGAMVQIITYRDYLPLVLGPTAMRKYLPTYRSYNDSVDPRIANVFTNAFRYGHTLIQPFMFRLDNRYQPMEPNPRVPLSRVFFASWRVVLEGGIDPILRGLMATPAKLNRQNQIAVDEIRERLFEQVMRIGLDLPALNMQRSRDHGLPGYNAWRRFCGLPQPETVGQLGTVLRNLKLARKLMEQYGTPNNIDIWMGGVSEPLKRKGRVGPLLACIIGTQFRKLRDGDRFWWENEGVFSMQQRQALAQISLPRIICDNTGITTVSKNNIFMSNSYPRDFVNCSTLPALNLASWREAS
Protocol Summary: NADH2-NDGA-myeloperoxidase spectrophotometric assay of sputum / oral fluid-cell harvest supernatant extracts
Type: biochemical
Condition Parameters: read-out: concentration that produces fifty (50) percent inhibition of myeloperoxidase
Quantity Kind: IC50 (mM)
Give bare numbers, in mM.

Request: # IC50 lookup, item [F-].[Na+] [Sodium Flouride, sodium fluoride]
Response: 63
